# ASSAY TEXT: Selectivity index, ratio of CC50 for African green monkey Vero cells to IC50 for ectromelia virus K-1 infected in Vero cells
# Format: toxicity, cell-based
# ASSAY CONDITIONS: read-out: Ratio CC50/IC50
# Lookup of reported selectivity ratio keyed by entry
Number only, no unit.

These recorded examples may help you get a feel for the data.
O=C(NC1CC1)c1c(O)nc(-c2ccc([N+](=O)[O-])cc2)n1O ... 24
CCOC(=O)c1c(O)nc(-c2ccccc2O)n1O ... 77
CCCCNC(=O)c1c(O)nc(-c2ccc([N+](=O)[O-])cc2)n1O ... 23
CCOC(=O)c1c(O)nc(-c2ccc([N+](=O)[O-])cc2)n1O ... 43
CCOC(=O)c1c(O)nc(-c2ccc(C(F)(F)F)cc2)n1O ... 46

Recorded selectivity ratio (compound O=C(NNC(=O)C1C2C=CC(C3CC23)C1C(=O)O)c1ccc(C(F)(F)F)cc1 (configuration not stated) ): 157

Short answer for Nc1ccn(C[C@@H](CO)OCP(=O)(O)O)c(=O)n1 : selectivity ratio was 29
